Tested on: Saccharomyces cerevisiae
Assay: protein stability index of tFT-peptide fusion (C-terminal peptide) (PSI (0-1 scale)); higher = more stable (slower turnover)
Conditions: genetic background: wild type; temperature: 30 C
quantityName: protein stability index
Form field (numeric): enter value without unit.

YVVCFFFKLFYF | 0.382
PPQSPPPGSPPP | 0.649

Next sequence, protein stability index to be filled in.
Q: Request the reported protein stability index associated with PTLPASLHSIYP
A: 0.768

---

Test system: Saccharomyces cerevisiae
Assay: protein stability index of tFT-peptide fusion (C-terminal peptide) (PSI (0-1 scale)); higher = more stable (slower turnover)
Settings: genetic background: cdc53-1; temperature: 37 C
quantityName: protein stability index
Form field (numeric): enter value without unit.

See these solved cases before continuing.
LGDPPCRMIVVR | 0.586
RKKIRTYINENV | 0.699
LGSYVWVFVYFW | 0.258
GLPRRFLLLSVV | 0.461
RVLCLVSSLTLF | 0.592

Q: Request the reported protein stability index associated with FVRCFWPFVFVF
A: 0.142

Q: Request the reported protein stability index associated with PFARIIDILLVI
A: 0.535

Q: Request the reported protein stability index associated with VYDVSVGVAVVG
A: 0.464

Q: Request the reported protein stability index associated with GTVRSLLKWRCS
A: 0.732

Q: Request the reported protein stability index associated with VLDFSVPRHVLH
A: 0.766

Q: Request the reported protein stability index associated with LSACYSRYVFVS
A: 0.553

Q: Request the reported protein stability index associated with RIVSGVVLLVFV
A: 0.469

Q: Request the reported protein stability index associated with YRNVLLVLNYWS
A: 0.368

Q: Request the reported protein stability index associated with LLSFYFVLAYMV
A: 0.393

Q: Request the reported protein stability index associated with YLRVRRPGSALV
A: 0.769

Q: Request the reported protein stability index associated with FPVWTALLTVRA
A: 0.128

Q: Request the reported protein stability index associated with WVGWVVVLGCVG
A: 0.42

Q: Request the reported protein stability index associated with VFVMRDGFLRKV
A: 0.706

---

System: Saccharomyces cerevisiae
Experiment: protein stability index of tFT-peptide fusion (C-terminal peptide) (PSI (0-1 scale)); higher = more stable (slower turnover)
Conditions: genetic background: wild type; temperature: 30 C
Use criterion met when the recorded protein stability index is no lower than 0.7; use criterion not met when it is lower.

Solved entries (count: 3):
RRNISRQNKKKR | criterion met
MVVGWGGVEPVG | criterion met
LSSGLLIFPIVF | criterion not met

Q: Form field: protein stability index at least 0.7? Entry: RGRRPRPGGTGT
A: criterion not met

Q: Form field: protein stability index at least 0.7? Entry: VGDIRSFALWYA
A: criterion met

Q: Form field: protein stability index at least 0.7? Entry: SGGSALGCGRAA
A: criterion not met

Q: Form field: protein stability index at least 0.7? Entry: IPGSPIATARPG
A: criterion not met

Q: Form field: protein stability index at least 0.7? Entry: ALRRWWCRGGRI
A: criterion met

Q: Form field: protein stability index at least 0.7? Entry: GEEGQRGRGWRS
A: criterion met

---

Test system: Saccharomyces cerevisiae
Assay: protein stability index of tFT-peptide fusion in deletion strain of DAS1 (PSI (0-1 scale)); higher = more stable (slower turnover)
quantityName: protein stability index
Form field (numeric): enter value without unit.

See these solved cases before continuing.
PRGAVGGWRLVG | 0.671
FEMRWTFRYWVN | 0.437
CTSCGYKFRTQN | 0.663
MRWRVGLWRGAS | 0.727

Next sequence, protein stability index to be filled in.
Q: Request the reported protein stability index associated with KKHKKGQKQKIV
A: 0.596
